Origin of the recorded values: ChEMBL document CHEMBL5727714

Molecular target: Complement factor D (Homo sapiens)
Sequence (P00746 whole entry): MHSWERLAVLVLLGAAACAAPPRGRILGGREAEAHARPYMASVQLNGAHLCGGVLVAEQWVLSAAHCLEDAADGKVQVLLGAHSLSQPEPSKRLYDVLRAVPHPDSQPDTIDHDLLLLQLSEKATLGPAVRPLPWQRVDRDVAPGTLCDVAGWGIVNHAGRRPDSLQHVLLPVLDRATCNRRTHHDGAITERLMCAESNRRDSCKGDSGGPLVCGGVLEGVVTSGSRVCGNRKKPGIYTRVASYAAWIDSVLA
Experiment: Inhibition Assay: Human Factor D (purified from human serum, Complement Technology, Inc.) at 80 nM final concentration is incubated with test compound at various concentrations for 5 minutes at room temperature in 50 mM Tris, 1M NaCl, pH 7.5. A synthetic substrate Z-L-Lys-SBzl and DTNB (Ellman's reagent) are added to final concentrations of 100 Î¼M each. Absorbance at 405 nm (A405) is recorded at 30 second intervals for 30 minutes using a microplate spectrophotometer. IC50 values are calculated by nonlinear regression of complement Factor D reaction rates as a function of test compound concentration.
experimentalReadout: IC50

Item CC(=O)c1cn(CC(=O)N2C[C@H](F)C[C@H]2C(=O)Nc2cccc(Cl)c2C(F)(F)F)c2ccc(Nc3cncnc3)cc12 ; assay system Complement factor D (Homo sapiens); IC50 reported as < 1000 nM
